Experiment: yeast display, Sf9 membrane polyspecificity reagent, FACS + sequencing; frameworks hold sequencing errors
Readout: polyreactivity (PSR sort gate)

Here are 5 sequences together with their reported answers.
residue_sequence=QVQLVESGGGLVQAGGSLRLSCAASRSTLSTYAMGWYRQAPGTERELVAAITWSDDSTYYADSVKGRFTISRDNAKNTVYLQMNSLKPEDTAVYYCAAEYISWFFGYDYWGQGTQVTVSS value_reported="high polyreactivity"
residue_sequence=QVQLVESGGGLVQAGGSLRLSCAASGSTFYAYTMGWYRQAPGKEREFVAAISKSGGSTYYADSVKGRFTISRDNAKNTVYIQMNSLKPEDTAVYYCAARVYYRYDWGQGTQVTVSS value_reported="high polyreactivity"
residue_sequence=QVQLVESGGGLVQAGGSLRLSCAASGSIFYLYAMGWYRQAPGKERELVAAITSIGGSTYADSVKGRFTISRDNAKNTVYLQMNSLKPEDTALYYCNTDEYPLTVQVQYYYWGQGTQVTVSS value_reported="low polyreactivity"
residue_sequence=QVQLVESGGGLVQAGGSLRLSCAASGIIFTDNAMGWYRQAPGKERELVATISWSTDNTYYADSVKGRFTISRDNAKNTVYLQMNSLKPEDTAVYYCAAEEYYAYWYQYDYWGQGTQVTVSS value_reported="low polyreactivity"
residue_sequence=QVQLVESGGGLVQAGGSLRLSCAASGNTINVNTMGWYRQAPGKERELVAAISKRGGSTYYADSVKGRFTISRDNAKNTVYLQMNSLKPEDTAVYYCAKQVSLPRYHYGSAPYGYWGQGTQVTVSS value_reported="high polyreactivity"

Fill in polyreactivity (PSR sort gate) for each of the 2 sequences listed.
1. QVQLVESGGRLVQAGASLRLSCAASGRILYWNTMGWYRQAPGKERELVASITQNVGSTYYADSVKGRFTISRDNAKNTVYLQMISMIPEDTAVYYCAAKRLSWHRYGYWGQGTQVTVSS
2. QVQLVESGGGLVQAGGSLRLSCAASGGTFYYYAMGWYRQAPGKERELVAAITGTGGRTYYADSVKGRFTISRDNAKNTVYLQMNSLKPEDTAVYYCAKYPAARAVDYWGQGTQVTVSS

// result
1. low polyreactivity
2. high polyreactivity

Fill in polyreactivity (PSR sort gate) for each of the 7 sequences listed.
1. QVQLVESGGGLVQAGGSLRLSCAASGRIFRNNAMGWYRQATGKERELVATISSRGGSTYYADSVKGRFTISSDNAKNNVYLQMNSLKPEDTAVYYCNKRWLHWAGYDYWGQGTQVTVSS
2. QVQLVESGGGLVQAGGSLRITCAASGSTFATYTIGWYRQPPGKEMELVAAISVSGSRTYADSVKGRFTISRDNAKNSVYLQMNSLKPEDTAVYYCAPRNYSVASYGEYDYWGQGTQVTVSS
3. QVQLVESGGGLVQEGGSLRLSCAASGLICQHNARVWSRHAPGKERELVAAISRSAGSSYYADSEKGRFTISRDNAKNTVYLQMNCLKPEDTAVFYCAKRPTPTTKDDTVRYGYWGQGSQVTVSS
4. QVQLVESGGGLVQAGGSLRFSCAASGSTFGDYTMGWYRQAPGKERELVAAISTSGTITYYADSVKGRFTISRDNAKNTVYLQMNSLKPEDTAVYYCAKLSQYTPVNDGYYWGQGTQVTVSS
5. QVQLLESGGGLVQAGGTLRLSCAASGYTFTNNAMGWYRQAPGKERELVAGITRGGSTNYADSVKGRFTISRDNAKNTVSLQMNSLKPEDTAVYYWAADLRPNSQNGLLEDEMDYWGQGTQVTVSS
6. QVQLVESGGGLVQAGGSLRLSCAASGSTFTLYAMGWYRQAPGKERELVAAISWSTTSTYYADSVKGRFTISRDNAKNTVYLQMNSLKPEDTAVYYCAAELYRAEYDYWGQGTQVTVSS
7. QVQLVESGGGLVQAGGSLRLSCAASGRTFNYYAMGWYRQAPGKERELVAAISASGGRTYYADSVKGRFTISRDNAKNTVYLQMNSLKPAETAVYYCAKVSSFDAQFDYWGQGTQVTVSS

// result
1: high polyreactivity; 2: high polyreactivity; 3: low polyreactivity; 4: low polyreactivity; 5: low polyreactivity; 6: high polyreactivity; 7: high polyreactivity

Fill in polyreactivity (PSR sort gate) for each of the 2 sequences listed.
1. KFQLVESGGGLVQAGGRLRLSCAASGSTFWDYAMGWYRQATGKERQLVAVITSSGGGTYYADSVKGRFTISRDNSKNTVYLLMNSLKPEDTAVYYCAKKRPYSNGGYYWGQGSQVTVSS
2. QVQLEESGGGLVQAGGSLRLSCAASGRIFGWYTMGWYRQAPGKERELVAAINFSGSRTYYADSVKGRFTISRDNAKNTVYLQMNSLKPEDTAVYYCNAVYHQFREEYWGQGTQVTVSS

// result
["high polyreactivity", "high polyreactivity"]

Fill in polyreactivity (PSR sort gate) for each of the 2 sequences listed.
1. QVQLVESGGGLVHAGGSLRLTCAASGSTFGKYAMGWYRQAPGKERELVAAITWSGASTFYADSVKGRFTISRDNAKNTVYLQMNSMKPEDTAGYYCAARSFKSYYIFDYWGQGTQVTVSS
2. QVQLVESGGGLVQAGGSLRLSCAASGSTFTLNAMGWYRQAPGKERELVADISWSSGRTYYADSVKGRVTISRDNAKNTVYLQMNSLKPEDTAVYYCATDDFWNVKFYAYYPDFDHWGQGTQVTVSS

// result
1. low polyreactivity
2. low polyreactivity
